Biological target: human calcium-sensing receptor (CaSR) (Homo sapiens, UniProt P41180)
Construct: host or cells: HEK293
Sequence (P41180 20-1078): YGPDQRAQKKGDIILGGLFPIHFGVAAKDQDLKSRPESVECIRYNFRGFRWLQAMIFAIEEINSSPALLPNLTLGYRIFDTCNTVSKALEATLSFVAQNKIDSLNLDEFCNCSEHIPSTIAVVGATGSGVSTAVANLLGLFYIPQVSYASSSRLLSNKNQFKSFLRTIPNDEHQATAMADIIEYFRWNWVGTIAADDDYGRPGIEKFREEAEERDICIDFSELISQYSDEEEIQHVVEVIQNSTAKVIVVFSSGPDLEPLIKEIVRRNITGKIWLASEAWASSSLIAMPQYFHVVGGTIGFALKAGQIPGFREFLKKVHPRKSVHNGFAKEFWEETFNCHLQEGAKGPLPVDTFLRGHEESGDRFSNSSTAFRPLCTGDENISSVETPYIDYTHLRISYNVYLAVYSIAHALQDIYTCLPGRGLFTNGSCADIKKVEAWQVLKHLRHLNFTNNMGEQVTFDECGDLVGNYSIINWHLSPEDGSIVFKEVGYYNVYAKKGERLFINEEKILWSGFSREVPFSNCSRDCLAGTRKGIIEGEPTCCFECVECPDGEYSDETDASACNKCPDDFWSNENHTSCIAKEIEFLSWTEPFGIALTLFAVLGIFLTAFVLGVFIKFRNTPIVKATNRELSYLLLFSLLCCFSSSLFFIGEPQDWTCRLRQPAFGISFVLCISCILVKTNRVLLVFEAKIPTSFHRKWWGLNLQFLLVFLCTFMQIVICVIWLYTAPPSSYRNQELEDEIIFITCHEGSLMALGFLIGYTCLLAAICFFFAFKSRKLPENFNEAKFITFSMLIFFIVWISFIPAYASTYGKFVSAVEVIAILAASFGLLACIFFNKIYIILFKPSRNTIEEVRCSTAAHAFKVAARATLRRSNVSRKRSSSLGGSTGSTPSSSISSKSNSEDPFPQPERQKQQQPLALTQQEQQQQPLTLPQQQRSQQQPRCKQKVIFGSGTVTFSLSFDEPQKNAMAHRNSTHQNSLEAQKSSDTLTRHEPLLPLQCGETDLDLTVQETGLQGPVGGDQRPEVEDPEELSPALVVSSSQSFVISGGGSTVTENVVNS
Assay: Agonist activity on human calcium-sensing receptor (IP-One HTRF in stably transfected HEK293/CaSR cells)
Assay type: cell-based
Conditions: HEK293/CaSR cells, IP-One production, 60 min at 37° C., CaCl2 1.2 mM; read-out: EC50 for calcium-sensing receptor
Square brackets hold non-standard residues; d marks the D form. Peptide text beside a SMILES is read from it. * marks the point of attachment. Cys(free,S-linked) = N[C@@H](CS*)C(=O)O; d(hPhe) = N[C@H](CCc1ccccc1)C(=O)O; d(hLeu) = CC(C)CC[C@@H](N)C(=O)O
Property: pEC50; scope: individual molecules
Convention used: pEC50 is expressed as -log10 of the molar concentration.

Examples with their reported pEC50 follow.
CC(=O)N[C@H](CSSC[C@H](N)C(=O)O)C(=O)N[C@H](CCCNC(=N)N)C(=O)N[C@H](CCCNC(=N)N)C(=O)N[C@H](CCc1ccccc1)C(=O)N[C@H](CCCNC(=N)N)C(=O)N[C@H](C)C(=O)N[C@H](CCCNC(=N)N)C(N)=O [Compound 16, Ac-c(C)-r-r-(D-hPhe)-r-a-r-NH2] (Ac-[dC](Cys(free,S-linked))[dR][dR][d(hPhe)][dR][dA][dR]-NH2)
5.63
CC(=O)N[C@H](CSSC[C@H](N)C(=O)O)C(=O)N[C@H](CCCNC(=N)N)C(=O)N[C@H](CCCNC(=N)N)C(=O)N[C@H](CCC(C)C)C(=O)N[C@H](CCCNC(=N)N)C(=O)NCC(=O)N[C@H](CCCNC(=N)N)C(N)=O [Compound 34, Ac-c(C)-r-r-(D-hLeu)-r-G-r-NH2] (Ac-[dC](Cys(free,S-linked))[dR][dR][d(hLeu)][dR]G[dR]-NH2)
4.91

Quick one: pEC50 of CC(=O)N[C@H](CSSC[C@H](N)C(=O)O)C(=O)N[C@H](CCCNC(=N)N)C(=O)N[C@H](CCCNC(=N)N)C(=O)N[C@H](CCC(N)=O)C(=O)N[C@H](CCCNC(=N)N)C(=O)N[C@H](CO)C(=O)N[C@H](CCCNC(=N)N)C(N)=O [Compound 26, Ac-c(C)-r-r-q-r-s-r-NH2] (Ac-[dC](Cys(free,S-linked))[dR][dR][dQ][dR][dS][dR]-NH2) ?
5.03

The reported numbers originate from patent US20230041996A1.
